tested on: naturally aged mice; assay: Anti-aging evaluation in naturally aged mice, Example 31, Table 55; format: in vivo, mouse; settings: liver, untreated = 100%;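 also: Vehicle-dosed control mice received solution alone at matching volume, values compare test-compound-treated aged mice against that control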
// NB: equality with 60% counts as 0 (no); only Liver p16 mRNA strictly below is 1 (yes)

INSERT INTO results (compound, classification) VALUES
  ('CN(C)c1cccc(-c2c3c(=O)n(-c4ccccc4Cl)[nH]c3cc(=O)n2C)c1', '0 (no)'),
  ('C=C1CC[C@@H]2[C@](C)(CO)[C@H](O)CC[C@@]2(C)[C@@H]1C/C=C1/C(=O)OC[C@H]1O [LX-6800, Andrographolide]', '0 (no)'),
  ('CCNCc1nc2c(O)c(Cl)cc(Cl)c2c(=O)n1C', '1 (yes)'),
  ('C[C@@H]1CC[C@@]23C[C@H](O)C(=O)[C@@]2(O)[C@]1(C)[C@H](OC(=O)CCl)C[C@@H](C1=CCn2c(=O)n(-c4ccccc4)c(=O)n2C1)[C@@H]3C', '1 (yes)'),
  ('CN[C@H](CC(C)C)C(=O)N[C@H]1C(=O)N[C@@H](CC(N)=O)C(=O)N[C@H]2C(=O)N[C@H]3C(=O)N[C@H](C(=O)N[C@H](C(=O)O)c4cc(O)cc(O)c4-c4cc3ccc4O)[C@H](O)c3ccc(c(Cl)c3)Oc3cc2cc(c3O[C@@H]2O[C@H](CO)[C@@H](O)[C@H](O)[C@H]2O[C@H]2C[C@](C)(N)[C@H](O)[C@H](C)O2)Oc2ccc(cc2Cl)[C@H]1O', '0 (no)');
